system: HOP-92 NSCLC; assay: NCI tumour cell line growth inhibition, 384-well format
measured parameter: TGI (µM)
Number only, in µM; omit the unit.

Task: // returns reported TGI for input CNC(=O)c1ccc(Nc2nc(OC3CCCC3)c3c(-c4ccc5nc(C)oc5c4)c[nH]c3n2)c(OC)c1
Result: 9.34

Task: Please look up its TGI: CCOC(=O)c1ccc2[nH]c(Cc3[nH]c4ccc(C(=O)OCC)cc4c3C)c(C)c2c1
Result: 7.98

Task: Sample Cc1cc(Nc2ncc(Cl)c(Nc3ccccc3S(=O)(=O)C(C)C)n2)c(OC(C)C)cc1C1CCNCC1 — what was its TGI?
Result: 2.45

Task: Value lookup for TGI; key = Cc1c(N(C(=O)c2cc(-c3cc(Cl)ccc3C(=O)N3Cc4ccccc4C[C@H]3CN3CCOCC3)n(C)c2C)c2ccc(O)cc2)cc(C#N)n1C
Result: 7.15

* * *

system: HOP-62 NSCLC; experiment: NCI tumour cell line growth inhibition, 384-well format; in the data active = GI50 below about 0.43 µM; inactive = the rest
Response enum: yes (active), no (inactive)

Task: Hey, what did the test say about CNC(=O)c1ccc(Nc2nc(OC3CCCC3)c3c(-c4ccc5nc(C)oc5c4)c[nH]c3n2)c(OC)c1 ?
Result: yes

Task: Field: outcome | Entry: CO[C@H]1C[C@@H]2CC[C@@H](C)[C@@](O)(O2)C(=O)C(=O)N2CCCC[C@H]2C(=O)O[C@H]([C@H](C)C[C@@H]2CC[C@@H](OC(=O)C(C)(CO)CO)[C@H](OC)C2)CC(=O)[C@H](C)/C=C(\C)[C@@H](O)[C@@H](OC)C(=O)[C@H](C)C[C@H](C)/C=C/C=C/C=C/1C
Result: yes

Task: // outcome(item) with item = Cc1cc(Nc2ncc(Cl)c(Nc3ccccc3S(=O)(=O)C(C)C)n2)c(OC(C)C)cc1C1CCNCC1
Result: no

Task: Query: recorded result category for CCC[C@H](Nc1nc(-c2ccc(NC(=O)NCC)c(OC)c2)ncc1C)c1cccnc1 in this test
Result: yes

Task: Answer briefly: the call reported for COc1cc(C(=O)O)ccc1NC(=O)[C@@H]1N[C@@H](CC(C)(C)C)[C@](C#N)(c2ccc(Cl)cc2F)[C@H]1c1cccc(Cl)c1F in this assay.
Result: no

Task: Dear colleague, could you share the recorded outcome for Cc1c(N(C(=O)c2cc(-c3cc(Cl)ccc3C(=O)N3Cc4ccccc4C[C@H]3CN3CCOCC3)n(C)c2C)c2ccc(O)cc2)cc(C#N)n1C when you have a moment?
Result: no

* * *

Record form. Attribute: TGI. Fill in for each entry.
system: BT-549 breast; experiment: NCI tumour cell line growth inhibition, 384-well format
# value in µM; strip the unit string

Task: Fill in: TGI of Cc1cc(Nc2ncc(Cl)c(Nc3ccccc3S(=O)(=O)C(C)C)n2)c(OC(C)C)cc1C1CCNCC1 is ___
Result: 3.3

Task: Tell me the measured TGI of COc1cc(C(=O)O)ccc1NC(=O)[C@@H]1N[C@@H](CC(C)(C)C)[C@](C#N)(c2ccc(Cl)cc2F)[C@H]1c1cccc(Cl)c1F , please.
Result: 6.21

Task: Any idea what its TGI is? The molecule is Nc1nc(F)nc2c1ncn2C1OC(COP(=O)(O)O)C(O)C1O (centres undefined)
Result: 96.9

Task: Can you look up the measured TGI of CCC[C@H](Nc1nc(-c2ccc(NC(=O)NCC)c(OC)c2)ncc1C)c1cccnc1 for me?
Result: 0.059

* * *

system: SNB-19 CNS; experiment: NCI tumour cell line growth inhibition, 384-well format; in the data active means GI50 below about 0.43 µM; inactive means the rest
Hello, when you answer, please use one of the following outcomes: YES (active), NO (inactive)

Task: Query: recorded result category for Cc1c(N(C(=O)c2cc(-c3cc(Cl)ccc3C(=O)N3Cc4ccccc4C[C@H]3CN3CCOCC3)n(C)c2C)c2ccc(O)cc2)cc(C#N)n1C in this test
Result: NO

Task: # fetch the recorded call for Cc1c(N)nc([C@H](CC(N)=O)NC[C@H](N)C(N)=O)nc1C(=O)N[C@H](C(=O)N[C@H](C)[C@@H](O)[C@H](C)C(=O)N[C@H](C(=O)NCCc1nc(-c2nc(C(=O)NCCC[S+](C)C)cs2)cs1)[C@@H](C)O)C(OC1OC(CO)C(O)C(O)C1OC1OC(CO)C(O)C(OC(N)=O)C1O)c1cnc[nH]1 (stereo partly specified) here
Result: NO

Task: How did this test come out for CCC[C@H](Nc1nc(-c2ccc(NC(=O)NCC)c(OC)c2)ncc1C)c1cccnc1 ?
Result: YES

Task: # fetch the recorded call for CCOC(=O)c1ccc2[nH]c(Cc3[nH]c4ccc(C(=O)OCC)cc4c3C)c(C)c2c1 here
Result: NO

Task: What classification did Nc1nc(F)nc2c1ncn2C1OC(COP(=O)(O)O)C(O)C1O (stereo unspecified) end up with in this test?
Result: NO

Task: For Cc1cc(Nc2ncc(Cl)c(Nc3ccccc3S(=O)(=O)C(C)C)n2)c(OC(C)C)cc1C1CCNCC1 , which call appears in the assay record?
Result: NO

* * *

For each of the molecules below, state its TGI.
test system: TK-10 renal; assay: NCI tumour cell line growth inhibition, 384-well format

Task: Which TGI is listed for CCC[C@H](Nc1nc(-c2ccc(NC(=O)NCC)c(OC)c2)ncc1C)c1cccnc1 ?
Result: 16.7 µM

Task: Reported TGI, molecule CO[C@H]1C[C@@H]2CC[C@@H](C)[C@@](O)(O2)C(=O)C(=O)N2CCCC[C@H]2C(=O)O[C@H]([C@H](C)C[C@@H]2CC[C@@H](OC(=O)C(C)(CO)CO)[C@H](OC)C2)CC(=O)[C@H](C)/C=C(\C)[C@@H](O)[C@@H](OC)C(=O)[C@H](C)C[C@H](C)/C=C/C=C/C=C/1C : ____
Result: 26.3 µM

Task: // lookup TGI for Cc1cc(Nc2ncc(Cl)c(Nc3ccccc3S(=O)(=O)C(C)C)n2)c(OC(C)C)cc1C1CCNCC1
Result: 2.92 µM

Task: Give the measured TGI of Cc1c(N(C(=O)c2cc(-c3cc(Cl)ccc3C(=O)N3Cc4ccccc4C[C@H]3CN3CCOCC3)n(C)c2C)c2ccc(O)cc2)cc(C#N)n1C .
Result: 58.6 µM

* * *

Task for the reader: assign each of the following molecules its reported TGI.
system: NCI-H522 lung; assay: NCI tumour cell line growth inhibition, 384-well format
Unit µM implied. Number only.

Task: Dear colleague, I am looking for the recorded TGI of the following molecule: CCOC(=O)c1ccc2[nH]c(Cc3[nH]c4ccc(C(=O)OCC)cc4c3C)c(C)c2c1
Result: 12.1

Task: # query: TGI of entry CCC[C@H](Nc1nc(-c2ccc(NC(=O)NCC)c(OC)c2)ncc1C)c1cccnc1
Result: 0.0378

Task: Which TGI is reported for this molecule? Cc1c(N)nc([C@H](CC(N)=O)NC[C@H](N)C(N)=O)nc1C(=O)N[C@H](C(=O)N[C@H](C)[C@@H](O)[C@H](C)C(=O)N[C@H](C(=O)NCCc1nc(-c2nc(C(=O)NCCC[S+](C)C)cs2)cs1)[C@@H](C)O)C(OC1OC(CO)C(O)C(O)C1OC1OC(CO)C(O)C(OC(N)=O)C1O)c1cnc[nH]1 (some centres undefined)
Result: 16.4

Task: TGI lookup needed for CNC(=O)c1ccc(Nc2nc(OC3CCCC3)c3c(-c4ccc5nc(C)oc5c4)c[nH]c3n2)c(OC)c1 , thanks.
Result: 1.44

* * *

system: UACC-62 melanoma; test: NCI tumour cell line growth inhibition, 384-well format; in the data active = GI50 below about 0.43 µM; inactive = the rest
Write down one outcome, taken from Yes for active, No for inactive

Task: I would be grateful if you could indicate the recorded call for Cc1cc(Nc2ncc(Cl)c(Nc3ccccc3S(=O)(=O)C(C)C)n2)c(OC(C)C)cc1C1CCNCC1 .
Result: No

Task: Record lookup: outcome of this test for CNC(=O)c1ccc(Nc2nc(OC3CCCC3)c3c(-c4ccc5nc(C)oc5c4)c[nH]c3n2)c(OC)c1 ?
Result: Yes

Task: # lookup: test call for CO[C@H]1C[C@@H]2CC[C@@H](C)[C@@](O)(O2)C(=O)C(=O)N2CCCC[C@H]2C(=O)O[C@H]([C@H](C)C[C@@H]2CC[C@@H](OC(=O)C(C)(CO)CO)[C@H](OC)C2)CC(=O)[C@H](C)/C=C(\C)[C@@H](O)[C@@H](OC)C(=O)[C@H](C)C[C@H](C)/C=C/C=C/C=C/1C
Result: No

Task: # fetch the recorded call for COc1cc(C(=O)O)ccc1NC(=O)[C@@H]1N[C@@H](CC(C)(C)C)[C@](C#N)(c2ccc(Cl)cc2F)[C@H]1c1cccc(Cl)c1F here
Result: Yes

Task: Hi, do you know how Cc1c(N(C(=O)c2cc(-c3cc(Cl)ccc3C(=O)N3Cc4ccccc4C[C@H]3CN3CCOCC3)n(C)c2C)c2ccc(O)cc2)cc(C#N)n1C came out in this test?
Result: No

* * *

tested on: HL-60(TB) leukemia; assay: NCI tumour cell line growth inhibition, 384-well format; in the data active = GI50 below about 0.43 µM; inactive = the rest
# output must be one of active, inactive

Task: Hello, I am checking results. What call was entered for Cc1c(N)nc([C@H](CC(N)=O)NC[C@H](N)C(N)=O)nc1C(=O)N[C@H](C(=O)N[C@H](C)[C@@H](O)[C@H](C)C(=O)N[C@H](C(=O)NCCc1nc(-c2nc(C(=O)NCCC[S+](C)C)cs2)cs1)[C@@H](C)O)C(OC1OC(CO)C(O)C(O)C1OC1OC(CO)C(O)C(OC(N)=O)C1O)c1cnc[nH]1 (stereo partly drawn) ?
Result: inactive

Task: GET /call?item= CNC(=O)c1ccc(Nc2nc(OC3CCCC3)c3c(-c4ccc5nc(C)oc5c4)c[nH]c3n2)c(OC)c1 returns the recorded outcome of this test.
Result: active

Task: How was Nc1nc(F)nc2c1ncn2C1OC(COP(=O)(O)O)C(O)C1O (stereo not drawn) classified in this test?
Result: inactive
